- target.of.assay: rat EP4 receptor (Rattus norvegicus, UniProt P43114)
- Sequence (P43114 whole entry): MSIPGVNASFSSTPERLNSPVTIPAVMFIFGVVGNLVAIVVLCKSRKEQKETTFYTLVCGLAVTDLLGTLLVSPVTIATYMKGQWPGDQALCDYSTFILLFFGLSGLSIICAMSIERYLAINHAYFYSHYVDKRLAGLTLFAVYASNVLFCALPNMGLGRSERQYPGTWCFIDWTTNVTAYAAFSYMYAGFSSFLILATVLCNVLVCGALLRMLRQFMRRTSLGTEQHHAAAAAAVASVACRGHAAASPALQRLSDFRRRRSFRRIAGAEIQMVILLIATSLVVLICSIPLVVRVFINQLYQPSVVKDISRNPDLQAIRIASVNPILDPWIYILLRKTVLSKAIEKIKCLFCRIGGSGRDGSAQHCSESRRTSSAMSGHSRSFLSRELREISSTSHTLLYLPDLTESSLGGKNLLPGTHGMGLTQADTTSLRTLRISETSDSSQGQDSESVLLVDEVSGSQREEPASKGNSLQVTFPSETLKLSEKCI
- assay.details: STEP plate cAMP level assay for EP4 agonist
- protocol.conditions: cAMP readout, read-out: STEP cell functional assay EC50s cAMP/EP4
experimental.readout: EC50 (nM)

>>> observed_value("COC(=O)c1ccc(CCCN2C(=O)C(F)(F)C[C@@H]2/C=C/[C@@H](O)[C@H](C)CCCc2ccccc2)s1 [Example 28E]")
50.8
